These entries and their values trace back to paper PMC7753147.

test system: FL-geph; test: µSPOT peptide microarray binding assay with full-length geph; conditions: µSPOT peptide microarray, GlyRβ full positional scan, intensity normalised to wild-type sequence DLRSNDFSIVGSLPR (=1)
MEASUREMENT_KIND: Fl-geph Binding Intensity [norm.] (norm.)
Reply with just the number (in norm.).

### Prompt Name the reported Fl-geph Binding Intensity [norm.] value associated with the sequence YLRSNDFSIVGSLPR [GlyRβ_Full_Positional_Scan_009]
### Response 1

### Prompt // repeat for HLRSNDFSIVGSLPR [GlyRβ_Full_Positional_Scan_013] and report
### Response 1

### Prompt // repeat for DLRSTDFSIVGSLPR [GlyRβ_Full_Positional_Scan_096] and report
### Response 0.78

----------
test system: native geph; experiment: µSPOT peptide microarray binding assay with native geph from mouse brain lysate; conditions: overlapping GlyR β peptide library on µSPOT array; 3% mouse brain lysate; normalized to most prominent spot; n = 2 array-internal duplicate
MEASUREMENT_KIND: Native geph Binding Intensity [norm.] (norm.)
Reply with just the number (in norm.).

### Prompt I'm curious: which Native geph Binding Intensity [norm.] was measured for HISTLQVGETRCKKVCTSKS [Glycine receptor subunit beta_016, GlyR β residues 394-413] tested on native geph?
### Response 0.042

### Prompt // repeat for TVNGTGTPVHISTLQVGETR [Glycine receptor subunit beta_013] and report
### Response 0.087

### Prompt // repeat for IEVNNGLGKPQAKNKKPPPA [Glycine receptor subunit beta_032, GlyR β residues 442-461] and report
### Response 0.075

### Prompt // repeat for PRDFELSNYDCYGKPIEVNN [Glycine receptor subunit beta_027, GlyR β residues 427-446] and report
### Response 0.521

### Prompt // repeat for VVQVMLNNPKRVEAEKARIA [Glycine receptor subunit beta_001, GlyR β residues 349-368] and report
### Response 0.081

### Prompt // repeat for KNKKPPPAKPVIPTAAKRID [Glycine receptor subunit beta_036, GlyR β residues 454-473] and report
### Response 0.068

### Prompt // repeat for NAAKKNTVNGTGTPVHISTL [Glycine receptor subunit beta_011, GlyR β residues 379-398] and report
### Response 0.077

### Prompt // repeat for TRCKKVCTSKSDLRSNDFSI [Glycine receptor subunit beta_019, GlyR β residues 403-422] and report
### Response 0.089

### Prompt // repeat for AEQADGKGGNAAKKNTVNGT [Glycine receptor subunit beta_008, GlyR β residues 370-389] and report
### Response 0.065

### Prompt // repeat for KARIAKAEQADGKGGNAAKK [Glycine receptor subunit beta_006, GlyR β residues 364-383] and report
### Response 0.091

### Prompt // repeat for VMLNNPKRVEAEKARIAKAE [Glycine receptor subunit beta_002, GlyR β residues 352-371] and report
### Response 0.082

----------
tested on: FL-geph; assay: µSPOT peptide microarray binding assay with full-length geph; details: µSPOT peptide microarray, GlyRβ full positional scan, intensity normalised to wild-type sequence DLRSNDFSIVGSLPR (=1)
MEASUREMENT_KIND: Fl-geph Binding Intensity [norm.] (norm.)
Reply with just the number (in norm.).

### Prompt Name the reported Fl-geph Binding Intensity [norm.] value associated with the sequence DLRLNDFSIVGSLPR [GlyRβ_Full_Positional_Scan_064]
### Response 0.89

### Prompt // repeat for DLRSNDFSPVGSLPR [GlyRβ_Full_Positional_Scan_165, GlyR β 414-428 variant I422P] and report
### Response 0.97

### Prompt // repeat for DLRSNFFSIVGSLPR [GlyRβ_Full_Positional_Scan_107] and report
### Response 0.78

### Prompt // repeat for DLRSNDCSIVGSLPR [GlyRβ_Full_Positional_Scan_137, GlyR β 414-428 variant F420C] and report
### Response 0.63

### Prompt // repeat for DLRSNDFSTVGSLPR [GlyRβ_Full_Positional_Scan_176, GlyR β 414-428 variant I422T] and report
### Response 0.95

### Prompt // repeat for DLRSNDFSFVGSLPR [GlyRβ_Full_Positional_Scan_167, GlyR β 414-428 variant I422F] and report
### Response 0.76

### Prompt // repeat for DLRSNSFSIVGSLPR [GlyRβ_Full_Positional_Scan_115] and report
### Response 0.92

### Prompt // repeat for DFRSNDFSIVGSLPR [GlyRβ_Full_Positional_Scan_027] and report
### Response 0.99

### Prompt // repeat for DLRSNDFRIVGSLPR [GlyRβ_Full_Positional_Scan_152, GlyR β 414-428 variant S421R] and report
### Response 0.92

### Prompt // repeat for DLRSNLFSIVGSLPR [GlyRβ_Full_Positional_Scan_104] and report
### Response 0.9

### Prompt // repeat for DLRSNDFYIVGSLPR [GlyRβ_Full_Positional_Scan_149, GlyR β 414-428 variant S421Y] and report
### Response 0.85

### Prompt // repeat for DLRSNCFSIVGSLPR [GlyRβ_Full_Positional_Scan_117] and report
### Response 0.8

### Prompt // repeat for DLRSNDFLIVGSLPR [GlyRβ_Full_Positional_Scan_144, GlyR β 414-428 variant S421L] and report
### Response 0.54
